Origin of values: patent US20200270309A1

# Test system: HUVECs
# test details: Transwell migration inhibition on HUVECs
# Format: cell-based, human
# experimental setup: HUVEC migration vs blank control; dose 0.05 μM
Peptide text beside a SMILES is read from it. * marks the point of attachment. X68 = O=C1C=CC(=O)N1c1ccccc1CCCCCCCCCCCC(=O)*; X46 = O=C1C=CC(=O)N1c1cccc(CCCCC(=O)*)c1; X61 = O=C1C=CC(=O)N1c1cccc(CCCC(=O)*)c1
endpoint name: Inhibition rate (%)
Numbers only, in %.

>>> value_observed("C[C@H](NC(=O)CNC(=O)[C@H](CCCNC(=N)N)NC(=O)CCCc1cccc(N2C(=O)C=CC2=O)c1)C(=O)N[C@@H](CC(=O)O)C(=O)N[C@@H](CCCNC(=N)N)C(=O)N[C@@H](C)C(=O)NCC(=O)NCC(=O)NCC(=O)NCC(=O)N[C@@H](CCCNC(=N)N)C(=O)NCC(=O)N[C@@H](CC(=O)O)C(=O)O [X27] (X61-RGADRAGGGGRGD-OH)")
46.39
>>> value_observed("C[C@H](NC(=O)CNC(=O)[C@H](CCCNC(=N)N)NC(=O)CCCCc1cccc(N2C(=O)C=CC2=O)c1)C(=O)N[C@@H](CC(=O)O)C(=O)N[C@@H](CCCNC(=N)N)C(=O)N[C@@H](C)C(=O)NCC(=O)NCC(=O)NCC(=O)NCC(=O)N[C@@H](CCCNC(=N)N)C(=O)NCC(=O)N[C@@H](CC(=O)O)C(=O)O [X28] (X46-RGADRAGGGGRGD-OH)")
43.01

input: Which Inhibition rate (%) value is on record for C[C@H](NC(=O)CNC(=O)[C@H](CCCNC(=N)N)NC(=O)CCCCCCCCCCCc1ccccc1N1C(=O)C=CC1=O)C(=O)N[C@@H](CC(=O)O)C(=O)N[C@@H](CCCNC(=N)N)C(=O)N[C@@H](C)C(=O)NCC(=O)NCC(=O)NCC(=O)NCC(=O)N[C@@H](CCCNC(=N)N)C(=O)NCC(=O)N[C@@H](CC(=O)O)C(=O)O [X23] (X68-RGADRAGGGGRGD-OH) ?
output: 48.22
